Biological target: WT/R232 STING protein (Homo sapiens, UniProt Q86WV6, H232R)
Construct: host or cells: HEK293T
Sequence (Q86WV6 whole entry H232R): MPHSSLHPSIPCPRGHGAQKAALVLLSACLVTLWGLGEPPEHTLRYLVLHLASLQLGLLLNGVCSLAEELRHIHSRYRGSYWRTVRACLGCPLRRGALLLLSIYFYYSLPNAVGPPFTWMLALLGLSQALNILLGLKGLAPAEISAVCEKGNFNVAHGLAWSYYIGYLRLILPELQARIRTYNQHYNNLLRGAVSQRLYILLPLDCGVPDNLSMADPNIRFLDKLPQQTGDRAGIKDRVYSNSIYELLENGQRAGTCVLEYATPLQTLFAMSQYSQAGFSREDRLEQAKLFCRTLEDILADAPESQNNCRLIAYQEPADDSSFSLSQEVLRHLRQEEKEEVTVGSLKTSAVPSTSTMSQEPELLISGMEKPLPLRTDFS
Assay: Luciferase reporter assay in HEK293T-hSTING-Luciferase cells, WT/R232
Type: cell-based
Details: 20 hr stimulation, read-out: R232 Activity (EC50 range)
Reported EC50 values for the following compounds.

Form field EC50, entry C[C@@H]1Oc2ncc(C(=O)NCc3cc4ccccc4o3)cc2N(Cc2cc(F)cc(F)c2)C1=O [Example 241] : 1 to 10 µM

====

Molecular target: WT/R232 STING protein (Homo sapiens, UniProt Q86WV6, H232R)
Assay: Luciferase reporter assay in HEK293T-hSTING-Luciferase cells, WT/R232
Details: 20 hr stimulation, read-out: R232 Activity (EC50 range)
Description: • a) Stable STING expressing cells—Stable HEK293T STING-expressing cell lines were generated using plasmids purchased from Invivogen, Calif., USA, that contain STING cDNA cloned into the pUNO-1 vector under hEF1-HTLV promoter and containing the Blasticidin selection cassette. […]
MEASUREMENT KIND: EC50

Solved cases below.
compound=O=C(NCc1ccco1)c1ccc2c(c1)N(Cc1c(F)cccc1Cl)C(=O)CS2 recorded_measurement="1 to 10 µM"
compound=Cc1ccc(CNC(=O)c2ccc3c(c2)N(Cc2c(F)cccc2Cl)C(=O)CS3)cn1 recorded_measurement="> 10 µM"
compound=Cc1csc(CNC(=O)c2ccc3c(c2)N(Cc2ccccc2)C(=O)CS3)n1 recorded_measurement="> 10 µM"

WT/R232 STING protein (Homo sapiens, UniProt Q86WV6, H232R) EC50 of `C[C@@H]1Oc2ccc(C(=O)NCc3cc4ccccc4o3)cc2N(Cc2cc(F)cc(F)c2)C1=O` is < 1 µM

WT/R232 STING protein (Homo sapiens, UniProt Q86WV6, H232R) EC50 of `O=C(NCc1ccco1)c1ccc2c(c1)N(CCc1cccc(C(F)(F)F)c1)C(=O)CS2` is > 10 µM

WT/R232 STING protein (Homo sapiens, UniProt Q86WV6, H232R) EC50 of `C[C@H]1Oc2ncc(C(=O)NCc3c(F)cc(F)cc3F)cc2N(Cc2cc(F)cc(F)c2)C1=O` is 1 to 10 µM

WT/R232 STING protein (Homo sapiens, UniProt Q86WV6, H232R) EC50 of `O=C(NCc1ccc2ccccc2c1)c1ccc2c(c1)N(Cc1ccccc1)C(=O)CS2` is 1 to 10 µM

WT/R232 STING protein (Homo sapiens, UniProt Q86WV6, H232R) EC50 of `O=C(NCc1ccsc1)c1ccc2c(c1)N(Cc1ccccc1)C(=O)CS2` is 1 to 10 µM

WT/R232 STING protein (Homo sapiens, UniProt Q86WV6, H232R) EC50 of C[C@@H]1Oc2ccc(C(=O)NCc3c(F)cc(F)cc3F)cc2N(Cc2cc(F)cc(F)c2)C1=O [Example 234] is < 1 µM

WT/R232 STING protein (Homo sapiens, UniProt Q86WV6, H232R) EC50 of Cc1cccc(CNC(=O)c2ccc3c(c2)N(Cc2ccccc2F)C(=O)C(C)S3)c1 (stereo not drawn) is < 1 µM

WT/R232 STING protein (Homo sapiens, UniProt Q86WV6, H232R) EC50 of `O=C(NCc1ccco1)c1ccc2c(c1)N(CC1CCCCC1)C(=O)CS2` is > 10 µM

WT/R232 STING protein (Homo sapiens, UniProt Q86WV6, H232R) EC50 of CC1Sc2ccc(C(=O)NCc3c(F)cc(F)cc3F)cc2N(Cc2ccccc2F)C1=O (stereo not drawn) is < 1 µM

WT/R232 STING protein (Homo sapiens, UniProt Q86WV6, H232R) EC50 of `Cc1nc(CNC(=O)c2ccc3c(c2)N(Cc2ccccc2)C(=O)CS3)cs1` is > 10 µM

WT/R232 STING protein (Homo sapiens, UniProt Q86WV6, H232R) EC50 of `Cc1cccc(CN2C(=O)CSc3ccc(C(=O)NCC4CCCCC4)cc32)c1C` is > 10 µM

WT/R232 STING protein (Homo sapiens, UniProt Q86WV6, H232R) EC50 of `C[C@@H](NC(=O)c1ccc2c(c1)N(Cc1ccccc1F)C(=O)CS2)C1CCCCC1` is > 10 µM

WT/R232 STING protein (Homo sapiens, UniProt Q86WV6, H232R) EC50 of `NC(=O)c1cc(C(=O)NCc2c(F)cc(F)cc2F)cc2c1SCC(=O)N2Cc1ccc(F)cc1` is > 10 µM

WT/R232 STING protein (Homo sapiens, UniProt Q86WV6, H232R) EC50 of `O=C(NCc1cccc2ccccc12)c1ccc2c(c1)N(Cc1ccccc1F)C(=O)CS2` is > 10 µM

WT/R232 STING protein (Homo sapiens, UniProt Q86WV6, H232R) EC50 of `O=C(NCc1c(F)cc(F)cc1F)c1ccc2c(n1)N(Cc1cc(F)cc(F)c1)C(=O)CC2` is 1 to 10 µM

WT/R232 STING protein (Homo sapiens, UniProt Q86WV6, H232R) EC50 of `O=C(CN1C(=O)CSc2ccc(C(=O)NCc3ccco3)cc21)Nc1ccncc1` is > 10 µM

Every entry's value here was drawn from patent US20200138827A1.
